Reported values of normalized growth for individual entries
experiment: chemical genetic growth profiling, strain panel (AID 1159580);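 also: tested at 20 µM; growth read once vehicle control cultures reached saturation at 30 °C; 1 = growth at the plate median or of vehicle wells; lower values mean less growth of the strain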; conditions: S. cerevisiae deletion strains, growth OD, locus YHR079C, strain IRE1, hits give low values
Screen size: about 5,500 compounds; about 2,000 (36%) were called active. Another 18% or so got no clear call; they are omitted. This is one part of the list.
EXPERIMENTAL_ENDPOINT: normalized growth

{"columns": ["MOLECULE", "ASSAY_VALUE"],
 "data": [
  ["CCN(CC)C(=O)c1cccc(C)c1", 0.977],
  ["COC(=O)c1sccc1-c1ccc(/C=C/[N+](=O)[O-])o1", 0.113],
  ["CO[C@@]1(NC(=O)CSCC#N)C(=O)N2C(C(=O)O)=C(CSc3nnnn3C)CSC21 (stereo partly drawn)", 0.986]
]}
